Each recorded value in this set is attributed to patent US6867305B2.

For each record, write down the corresponding IC50.
Test system: MX-1 human mammary carcinoma
Assay: Tumor cell growth inhibition in vitro
Type: cell-based
Conditions: Homo sapiens, MX1
The reply must contain the numeric value and, after it, the unit.

Record summary for C/C1=C/C[C@@H](/C(C)=C/c2csc(C)n2)OC(=O)C[C@H](O)C(C)(C)C(=O)[C@H](C)[C@@H](O)[C@@H](C)CCC1 : reported IC50 = 0.0221 µM

Record summary for CC(=O)O[C@H]1C(=O)[C@@]2(C)[C@H]([C@H](OC(=O)c3ccccc3)[C@]3(O)C[C@H](OC(=O)[C@H](O)[C@@H](NC(=O)c4ccccc4)c4ccccc4)C(C)=C1C3(C)C)[C@]1(OC(C)=O)CO[C@@H]1C[C@@H]2O [Taxol, paclitaxel, reference compound] : reported IC50 = 0.0394 µM

Record summary for C/C(=C\c1csc(C)n1)C1C[C@@H]2O[C@]2(C)CCC[C@H](C)[C@H](O)[C@@H](C)C(=O)C(C)(C)C(O)CC(=O)N1 (stereo partly shown) : reported IC50 = 0.0024 µM

Record summary for C/C1=C/C[C@@H](/C(C)=C/c2csc(CO)n2)OC(=O)C[C@H](O)C(C)(C)C(=O)[C@H](C)[C@@H](O)[C@@H](C)CCC1 : reported IC50 = 0.0042 µM

====

Test system: CCRF-CEM human T-cell acute lymphoblastic leukemia cells
Test: Tumor cell growth inhibition in vitro (XTT, 72 h)
Type: cell-based
Conditions: CCRF-CEM, 72 h incubation
For each record, write down the corresponding pIC50.
Please express pIC50 as -log10 of the molar concentration.

Record summary for COc1cc([C@@H]2c3cc4c(cc3[C@@H](O[C@@H]3O[C@@H]5CO[C@@H](C)O[C@H]5[C@H](O)[C@H]3O)[C@H]3COC(=O)[C@H]23)OCO4)cc(OC)c1O [Etoposide, etoposide, reference compound] : reported pIC50 = 7.54

Record summary for C/C1=C/C[C@@H](/C(C)=C/c2csc(CO)n2)OC(=O)C[C@H](O)C(C)(C)C(=O)[C@H](C)[C@@H](O)[C@@H](C)CCC1 : reported pIC50 = 8.57

Record summary for CC(=O)O[C@H]1C(=O)[C@@]2(C)[C@H]([C@H](OC(=O)c3ccccc3)[C@]3(O)C[C@H](OC(=O)[C@H](O)[C@@H](NC(=O)c4ccccc4)c4ccccc4)C(C)=C1C3(C)C)[C@]1(OC(C)=O)CO[C@@H]1C[C@@H]2O [Taxol, paclitaxel, reference compound] : reported pIC50 = 8.92

Record summary for C/C1=C/C[C@@H](/C(C)=C/c2csc(C)n2)OC(=O)C[C@H](O)C(C)(C)C(=O)[C@H](C)[C@@H](O)[C@@H](C)CCC1 : reported pIC50 = 8.13

====

Assay: Pharmacokinetics in beagle dogs
Type: in vivo
Settings: male, dog, plasma, intravenous, 6 mg/kg, 10-min i.v. infusion, read-out: β-phase t1/2 (converted)
measurement_kind: half-life

Record summary for C/C1=C/C[C@@H](/C(C)=C/c2csc(C)n2)OC(=O)C[C@H](O)C(C)(C)C(=O)[C@H](C)[C@@H](O)[C@@H](C)CCC1 : reported half-life = 21 h

====

Test: Stability in plasma in vitro (HPLC)
Type: in vitro ADME, mouse
Settings: nude, mouse, plasma, nude mice plasma, HPLC; read-out: t1/2 in nude mice plasma in vitro
measurement_kind: half-life

Record summary for C/C1=C/C[C@@H](/C(C)=C/c2csc(C)n2)OC(=O)C[C@H](O)C(C)(C)C(=O)[C@H](C)[C@@H](O)[C@@H](C)CCC1 : reported half-life = ~20 min
